- Target desc: UniProt O35433
- Assay comment: Antagonist activity at rat TRPV1 expressed in CHO cells assessed as inhibition of 45Ca2+ uptake
- Type: functional, cell-based
Binned Ki; ranges: class 1 (below 0.1 µM), class 2 (0.1 µM to below 0.2 µM), class 3 (0.2 µM or more)

Band for CC(C)(C)C(=O)OCC(NC(=S)NCc1ccc(NS(C)(=O)=O)c(F)c1)c1ccc(C(C)(C)C)cc1 (stereo not given) ?
class 3

Band for Cc1ccc(CC(COC(=O)C(C)(C)C)NC(=S)NCc2ccc(NS(C)(=O)=O)c(F)c2)cc1C (stereo not given) ?
class 3

Band for Cc1ccc(CCC(COC(=O)C(C)(C)C)NC(=S)NCc2ccc(NS(C)(=O)=O)cc2)cc1C (stereo not given) ?
class 1

Band for CC(C)(C)C(=O)OCC(CCc1ccc(C(C)(C)C)cc1)NC(=S)NCc1ccc(NS(C)(=O)=O)cc1 (stereo not given) ?
class 3

Band for CC(C)(C)C(=O)OCC(NC(=S)NCc1ccc(NS(C)(=O)=O)cc1)c1ccc(C(C)(C)C)cc1 (stereo not given) ?
class 3

Band for Cc1ccc(CCC(COC(=O)C(C)(C)C)NC(=S)NCc2ccc(NS(C)(=O)=O)c(F)c2)cc1C (stereo not given) ?
class 2

Band for CC(C)(C)C(=O)OCC(CNC(=S)NCc1ccc(NS(C)(=O)=O)c(F)c1)c1ccc(C(C)(C)C)cc1 (stereo not given) ?
class 2

Band for CC(C)(C)C(=O)OCC(Cc1ccc(C(C)(C)C)cc1)NC(=S)NCc1ccc(NS(C)(=O)=O)c(F)c1 (stereo not given) ?
class 2

Band for CC(C)(C)C(=O)OCC(CNC(=S)NCc1ccc(NS(C)(=O)=O)cc1)c1ccc(C(C)(C)C)cc1 (stereo not given) ?
class 1

Band for CC(C)(C)C(=O)OCC(CCc1ccc(C(C)(C)C)cc1)NC(=S)NCc1ccc(NS(C)(=O)=O)c(F)c1 (stereo not given) ?
class 2

----------
- Target desc: Transient receptor potential cation channel subfamily V member 1 (Rattus norvegicus) (UniProt O35433)
- Sequence (O35433 whole entry): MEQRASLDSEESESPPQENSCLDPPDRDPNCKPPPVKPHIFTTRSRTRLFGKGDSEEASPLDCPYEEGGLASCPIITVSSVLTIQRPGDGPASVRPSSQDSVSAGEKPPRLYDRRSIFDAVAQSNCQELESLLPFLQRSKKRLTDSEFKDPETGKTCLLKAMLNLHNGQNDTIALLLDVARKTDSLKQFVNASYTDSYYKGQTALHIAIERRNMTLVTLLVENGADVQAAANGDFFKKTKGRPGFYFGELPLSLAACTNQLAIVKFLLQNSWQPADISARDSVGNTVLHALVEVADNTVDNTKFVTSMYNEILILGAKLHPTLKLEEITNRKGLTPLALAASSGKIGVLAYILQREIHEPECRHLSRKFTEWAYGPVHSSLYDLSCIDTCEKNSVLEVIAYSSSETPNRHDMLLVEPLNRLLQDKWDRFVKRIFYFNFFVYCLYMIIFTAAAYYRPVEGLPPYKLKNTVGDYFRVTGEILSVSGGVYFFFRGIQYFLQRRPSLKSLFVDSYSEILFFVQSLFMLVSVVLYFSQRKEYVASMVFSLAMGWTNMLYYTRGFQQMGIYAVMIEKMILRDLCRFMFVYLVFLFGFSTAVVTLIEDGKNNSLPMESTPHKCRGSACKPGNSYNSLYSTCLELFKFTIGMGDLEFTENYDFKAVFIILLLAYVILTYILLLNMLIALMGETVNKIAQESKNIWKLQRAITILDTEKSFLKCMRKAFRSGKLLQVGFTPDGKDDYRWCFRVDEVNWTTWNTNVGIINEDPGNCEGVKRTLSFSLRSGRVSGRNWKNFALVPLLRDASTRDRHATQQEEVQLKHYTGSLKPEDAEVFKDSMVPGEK
- Assay comment: Antagonist activity at rat TRPV1 expressed in CHO cells assessed as inhibition of 45Ca2+ uptake relative to control
- Assay type: functional, cell-based
- Parameters: scale not given: the % may be the effect or the level left
Readout name: Activity
Write the quantity with the unit trailing the number.

Could you share which Activity value was measured for CC(C)(C)C(=O)OCC(NC(=S)NCc1ccc(NS(C)(=O)=O)c(F)c1)c1ccc(C(C)(C)C)cc1 (centres undefined) ?
72%

Could you share which Activity value was measured for Cc1ccc(CC(COC(=O)C(C)(C)C)NC(=S)NCc2ccc(NS(C)(=O)=O)cc2)cc1C (centres undefined) ?
48%

Could you share which Activity value was measured for CC(C)(C)C(=O)OCC(NC(=S)NCc1ccc(NS(C)(=O)=O)cc1)c1ccc(C(C)(C)C)cc1 (centres undefined) ?
46%

Could you share which Activity value was measured for CC(C)(C)C(=O)OCC(Cc1ccc(C(C)(C)C)cc1)NC(=S)NCc1ccc(NS(C)(=O)=O)cc1 (centres undefined) ?
31%

----------
- Target desc: Transient receptor potential cation channel subfamily V member 1 (Rattus norvegicus) (UniProt O35433)
- Assay comment: Agonist activity at rat TRPV1 expressed in CHO cells assessed as induction of 45Ca2+ uptake at 30 uM relative to capsaicin
- Assay type: functional, cell-based
The source made the active and inactive calls. No cut-off for these calls is given here.
Readout name: Activity

Compound | Data value
CC(C)(C)C(=O)OCC(CNC(=S)NCc1ccc(NS(C)(=O)=O)c(F)c1)c1ccc(C(C)(C)C)cc1 (stereo unspecified) | inactive
Cc1ccc(CCC(COC(=O)C(C)(C)C)NC(=S)NCc2ccc(NS(C)(=O)=O)c(F)c2)cc1C (stereo unspecified) | inactive
CC(C)(C)C(=O)OCC(NC(=S)NCc1ccc(NS(C)(=O)=O)cc1)c1ccc(C(C)(C)C)cc1 (stereo unspecified) | 46%
CC(C)(C)C(=O)OCC(CNC(=S)NCc1ccc(NS(C)(=O)=O)cc1)c1ccc(C(C)(C)C)cc1 (stereo unspecified) | inactive
CC(C)(C)C(=O)OCC(NC(=S)NCc1ccc(NS(C)(=O)=O)c(F)c1)c1ccc(C(C)(C)C)cc1 (stereo unspecified) | 35%

# evaluate next
Could you share which Activity value was measured for Cc1ccc(CC(CN/C(S)=N/Cc2ccc(NS(C)(=O)=O)cc2)COC(=O)C(C)(C)C)cc1C (stereo unspecified) ?
15%
